# Test system: 565232-114-T-J1-PDC complex spheroid viability;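 further: spheroids exposed to compounds for 7 days before readout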
# protocol_notes: Anticancer human tumor 565232-114-T-J1-PDC patient-derived bladder carcinoma cell line growth inhibition [CLK]
# assay_conditions: second compound 3.16 µM; first compound 0.316 µM; active compounds read low
Each record is given Criterion met if its reported viability, T/C is strictly below 9%. Records at or above 9% are given Criterion not met.

Solved entries:
INSERT INTO assay_data (compound, class) VALUES
  ('O=c1[nH]cc(F)c(=O)[nH]1 + CN1CCN(c2cc(C(=O)Nc3cc4cc(-c5cnn(C)c5)ccc4cn3)ccn2)CC1', 'Criterion met'),
  ('CCc1c2c(nc3ccc(O)cc13)-c1cc3c(c(=O)n1C2)COC(=O)[C@]3(O)CC + CNC(=O)c1ccc(Nc2nc(OC3CCCC3)c3c(-c4ccc5nc(C)oc5c4)c[nH]c3n2)c(OC)c1', 'Criterion met'),
  ('O=C(c1cc(Cc2n[nH]c(=O)c3ccccc23)ccc1F)N1CCN(C(=O)C2CC2)CC1 + CNC(=O)c1ccc(Nc2nc(OC3CCCC3)c3c(-c4ccc5nc(C)oc5c4)c[nH]c3n2)c(OC)c1', 'Criterion not met');

Would you kindly verify if viability, T/C of Nc1ccn(C2OC(CO)C(O)C2(F)F)c(=O)n1 (stereo unspecified) + CNC(=O)c1ccc(Nc2nc(OC3CCCC3)c3c(-c4ccc5nc(C)oc5c4)c[nH]c3n2)c(OC)c1 is strictly less than 9%?
Criterion met

Would you kindly verify if viability, T/C of CC1COCCN1c1cc(C2(S(C)(=N)=O)CC2)nc(-c2ccnc3[nH]ccc23)n1 (stereo unspecified) + CNC(=O)c1ccc(Nc2nc(OC3CCCC3)c3c(-c4ccc5nc(C)oc5c4)c[nH]c3n2)c(OC)c1 is strictly less than 9%?
Criterion not met

Would you kindly verify if viability, T/C of CCCS(=O)(=O)Nc1ccc(F)c(C(=O)c2c[nH]c3ncc(-c4ccc(Cl)cc4)cc23)c1F + CNC(=O)c1ccc(Nc2nc(OC3CCCC3)c3c(-c4ccc5nc(C)oc5c4)c[nH]c3n2)c(OC)c1 is strictly less than 9%?
Criterion not met

Would you kindly verify if viability, T/C of Nc1ccccc1NC(=O)c1ccc(CNC(=O)OCc2cccnc2)cc1 + CNC(=O)c1ccc(Nc2nc(OC3CCCC3)c3c(-c4ccc5nc(C)oc5c4)c[nH]c3n2)c(OC)c1 is strictly less than 9%?
Criterion not met

Would you kindly verify if viability, T/C of CC(Nc1ccc2c(c1)OCCn1cc(N3C(=O)OCC3C(F)F)nc1-2)C(N)=O (stereo unspecified) + CNC(=O)c1ccc(Nc2nc(OC3CCCC3)c3c(-c4ccc5nc(C)oc5c4)c[nH]c3n2)c(OC)c1 is strictly less than 9%?
Criterion not met

Would you kindly verify if viability, T/C of COc1cccc2c1C(=O)c1c(O)c3c(c(O)c1C2=O)CC(O)(C(=O)CO)CC3OC1CC(N)C(O)C(C)O1 (stereo unspecified) + CNC(=O)c1ccc(Nc2nc(OC3CCCC3)c3c(-c4ccc5nc(C)oc5c4)c[nH]c3n2)c(OC)c1 is strictly less than 9%?
Criterion met

Would you kindly verify if viability, T/C of C#Cc1c(F)ccc2cc(O)cc(-c3ncc4c(N5CC6CCC(C5)N6)nc(OCC56CCCN5CC(F)C6)nc4c3F)c12 (stereo unspecified) + CN1CCN(c2cc(C(=O)Nc3cc4cc(-c5cnn(C)c5)ccc4cn3)ccn2)CC1 is strictly less than 9%?
Criterion met

Would you kindly verify if viability, T/C of COc1ccc([C@@H](O)c2cc(-c3ncnc4cc(N5CCOCC5)ccc34)c(F)cc2Cl)nn1 + CN1CCN(c2cc(C(=O)Nc3cc4cc(-c5cnn(C)c5)ccc4cn3)ccn2)CC1 is strictly less than 9%?
Criterion met
